# protein stability index per entry
B1: STX11 (parent)
chain: FQRAMHDYNQAEMKQRDNCKIRIQ

- Variants of: B1
- experiment.summary: protein stability index of a GFP-peptide fusion (GPS, HEK-293T) (PSI 1-6); higher = more stable;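 further: lentivirally expressed fusions sorted by FACS into six bins by GFP to DsRed ratio, PSI derived from sequencing read proportions per bin multiplied by bin number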
- measurement.conditions: c terminus: a fixed tail appended
Number only, please.

Here's what some known entries look like.
Q24F = 2.17
R22V = 2.6

Endpoint output: protein stability index of Y8K . Value?
3.58

Consider the variant K20F and give its measured protein stability index.
1.69

Fill in: protein stability index of N9H is ___
2.93

Sample A4D — what was its protein stability index?
3.4

Which protein stability index is listed for D17N ?
2.28

Consider the variant shown here: R16H What is its recorded protein stability index?
2.73

protein stability index for C19E ?
3.06

Find the recorded protein stability index belonging to N9W and report it.
1.74

Recorded protein stability index for Q15T , please?
3.18
